All values here come from PubChem BioAssay AID2060509.

tested on: 485176-168-R4-J1-PDC spheroids with HUVEC/MSC, viability; test: Anticancer human tumor 485176-168-R4-J1-PDC patient-derived pancreatic adenocarcinoma cell line growth inhibition [GQUAD]; conditions: second compound 0.1 µM; first compound 10 µM; active = viability on the fitted dose curve at most 10% of control; inactive = the rest
The reply should be one of these categories: class 1 = active, class 0 = inactive

Here are 4 compounds together with their reported answers.
compound	target_desc	assigned_class
C#Cc1c(F)ccc2cc(O)cc(-c3ncc4c(N5CC6CCC(C5)N6)nc(OCC56CCCN5CC(F)C6)nc4c3F)c12 (centres undefined) + Cc1[nH]c2ccc(F)cc2c1-c1nc2c3cccnc3c3ncccc3c2[nH]1	485176-168-R4-J1-PDC spheroids with HUVEC/MSC, viability	class 0
CC1COCCN1c1cc(C2(O)CC3CCC(C2)O3)c2cnn(-c3ccn[nH]3)c2n1 (centres undefined) + CN(C)c1ccc(Nc2c3ccc(NC(=O)CCN4CCCC4)cc3nc3cc(NC(=O)CCN4CCCC4)ccc23)cc1	485176-168-R4-J1-PDC spheroids with HUVEC/MSC, viability	class 1
O=c1[nH]cc(F)c(=O)[nH]1 + Cc1cnc(CNC(=O)c2c(=O)c3ccc(N4CCCN(C)CC4)nc3n3c2sc2ccccc23)cn1	485176-168-R4-J1-PDC spheroids with HUVEC/MSC, viability	class 0
C=CC(=O)N1CCN(c2nc(=O)n(-c3c(C)ccnc3C(C)C)c3nc(-c4c(O)cccc4F)c(F)cc23)C(C)C1 (centres undefined) + Cc1cnc(CNC(=O)c2c(=O)c3ccc(N4CCCN(C)CC4)nc3n3c2sc2ccccc23)cn1	485176-168-R4-J1-PDC spheroids with HUVEC/MSC, viability	class 0

Read the next record carefully.
# lookup: test call for CC(=O)O[C@H]1C(=O)[C@@]2(C)[C@H]([C@H](OC(=O)c3ccccc3)[C@]3(O)C[C@H](OC(=O)[C@H](O)[C@@H](NC(=O)c4ccccc4)c4ccccc4)C(C)=C1C3(C)C)[C@]1(OC(C)=O)CO[C@@H]1C[C@@H]2O + CN(C)c1ccc(Nc2c3ccc(NC(=O)CCN4CCCC4)cc3nc3cc(NC(=O)CCN4CCCC4)ccc23)cc1
class 0

###

tested on: 485176-168-R4-J1-PDC spheroids with HUVEC/MSC, viability; experiment: Anticancer human tumor 485176-168-R4-J1-PDC cell line growth inhibition [GQUAD]; settings: second compound 0.0316 µM; first compound 1 µM; hits give low values;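 note: spheroids exposed to compounds for seven days before readout; percent viability relative to DMSO vehicle control wells as 100%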
Item-by-item account of viability, T/C
Express the result in % but write the number alone.

Quick note, viability, T/C for CC(C)(O)C1CCC(Nc2ccc3ncc(-c4cccc(C(F)(F)F)c4)n3n2)CC1 (centres undefined) + CN(C)c1ccc(Nc2c3ccc(NC(=O)CCN4CCCC4)cc3nc3cc(NC(=O)CCN4CCCC4)ccc23)cc1 landed at 78.8

Quick note, viability, T/C for COc1ccc([C@@H](O)c2cc(-c3ncnc4cc(N5CCOCC5)ccc34)c(F)cc2Cl)nn1 + CN(C)c1ccc(Nc2c3ccc(NC(=O)CCN4CCCC4)cc3nc3cc(NC(=O)CCN4CCCC4)ccc23)cc1 landed at 82.3

Quick note, viability, T/C for COc1ncnc(C2CC2)c1-c1ncc2cnn(Cc3ccc(-c4nc(C(F)(F)F)cn4C(C)C)cc3)c2n1 + Cc1[nH]c2ccc(F)cc2c1-c1nc2c3cccnc3c3ncccc3c2[nH]1 landed at 105

Quick note, viability, T/C for Cc1cccc(N(C)C(=O)C2C(O)CCN2c2nc(C)cc(C(F)(F)F)c2C#N)c1 (centres undefined) + CN(C)c1ccc(Nc2c3ccc(NC(=O)CCN4CCCC4)cc3nc3cc(NC(=O)CCN4CCCC4)ccc23)cc1 landed at 105
